Tested on: 521955-158-R6-J3-PDC complex spheroid growth, % test/control;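 further: spheroids exposed to compounds for 7 days; 100% = DMSO vehicle control wells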
assay_overview: Anticancer human tumor 521955-158-R6-J3-PDC patient-derived pancreatic carcinoma cell line growth inhibition [Asc]
condition_notes: second compound 3 µM; first compound 0.01 µM; stronger effect = lower value
For each record, write down the corresponding viability, T/C.
State just the number; it will be interpreted in %.

Q. Provide viability, T/C value for the following compound: COc1c(OCCCN2CCOCC2)ccc2c3n(c(=NC(=O)c4cnc(N)nc4)nc12)CCN3 + CCN1C(C(=O)NC23CCC(C(=O)O)(CC2)CC3)C(c2cccc(Cl)c2F)C2(C(=O)Nc3cc(Cl)ccc32)C12CCCCC2
A. 83.8

Q. Fill in viability, T/C for record Cn1ncnc1[C@H]1c2n[nH]c(=O)c3cc(F)cc(c23)N[C@@H]1c1ccc(F)cc1 + CCN1C(C(=O)NC23CCC(C(=O)O)(CC2)CC3)C(c2cccc(Cl)c2F)C2(C(=O)Nc3cc(Cl)ccc32)C12CCCCC2
A. 82

Q. Note down viability, T/C recorded for O=C(c1ccc(F)c(F)c1Nc1ccc(I)cc1F)N1CC(O)([C@@H]2CCCCN2)C1 + CCN1C(C(=O)NC23CCC(C(=O)O)(CC2)CC3)C(c2cccc(Cl)c2F)C2(C(=O)Nc3cc(Cl)ccc32)C12CCCCC2
A. 112
